Target: Proteasome subunit beta (Trypanosoma cruzi) (UniProt O96673)
Sequence (whole entry): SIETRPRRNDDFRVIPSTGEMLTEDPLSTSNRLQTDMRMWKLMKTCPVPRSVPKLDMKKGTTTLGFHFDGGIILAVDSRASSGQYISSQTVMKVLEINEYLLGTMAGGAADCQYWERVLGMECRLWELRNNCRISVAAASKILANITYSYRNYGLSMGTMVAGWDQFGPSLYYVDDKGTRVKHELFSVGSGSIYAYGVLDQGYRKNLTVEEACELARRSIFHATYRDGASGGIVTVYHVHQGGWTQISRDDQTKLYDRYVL
Assay: Trypanosoma cruzi proteasome chymotrypsin-like activity (TcProtChymo) assay. Also: in the data most compounds retested in dose-response had high values.
Assay type: functional
Parameters: scale not given: direction of the effect not stated beside the values
Details: 9.37 µM
readoutLabel: Percent Effect (%)
Enter your answer as a number in %; do not include the unit.

Worked examples follow.
| compound | Percent Effect [%] |
| --- | --- |
| CCN(C(c1cccnc1)c1ccc2c(c1)CCO2)S(C)(=O)=O (stereo unspecified) | 3.17 |
| COCCOc1ccc(NC(=O)N2CCCC2c2cc(C)no2)cn1 (stereo unspecified) | 5.74 |
| CCn1ncc(CN2CCc3c(nc(-c4cccnc4)[nH]c3=O)C2)c1C | 10.3 |
| c1ncn(Cc2cnc3n2CCN(Cc2ccsc2)CC3)n1 | 5.9 |
| CCN(CC(=O)NC)S(=O)(=O)N1CCCCCC1 | 6.61 |

Let's switch to this compound now.
Value of measured Percent Effect for the entry CS(=O)(=O)c1ccc(CNC2CCCN(c3cccnn3)C2)cc1 (stereo unspecified) : 12.5

* * *

target: AMP-activated protein kinase, AMPK (Homo sapiens) (UniProt P54646+O43741+P54619+Q9UGJ0+Q9Y478+Q13131+Q9UGI9); assay: AMP-dependent Kinase enzyme assay. An in vitro enzyme assay that detects ADP turnover that is directly proportional to AMPK activity. This uses naive AMPK that is activated during the assay with MK-8722; type: functional; design: scale not given: direction of the effect not stated beside the values; conditions: 30 µM
readoutLabel: Percent Effect
Put down the number, then write its unit next to it.

| compound | Percent Effect |
| --- | --- |
| Cc1nccn1CCC1CCCCN1Cc1ccncc1 (stereo unspecified) | -13% |
| COc1cccc(C)c1C(=O)N1C[C@@H](CN(C)C)[C@@H](CO)C1 | -2.32% |
| O=C(COCC1CC1)N1CCCC(n2cccn2)C1 (stereo unspecified) | 1.73% |
| Cc1nc2ccccc2nc1CN1CCCC1c1c(C)nn(C)c1C (stereo unspecified) | 5.44% |
| COCC(=O)N1CC[C@@H]2O[C@@H](COCc3csc(C)n3)CC[C@@H]21 | 4.29% |

Note to self: Percent Effect recorded for COc1ccc(CN2CCCC(Nc3cccc(F)c3)C2)cc1O (stereo unspecified) was -3.77%

* * *

Molecular target: Ubiquitin-activating enzyme e1, putative (Leishmania donovani (strain BPK282A1))
Sequence (whole entry): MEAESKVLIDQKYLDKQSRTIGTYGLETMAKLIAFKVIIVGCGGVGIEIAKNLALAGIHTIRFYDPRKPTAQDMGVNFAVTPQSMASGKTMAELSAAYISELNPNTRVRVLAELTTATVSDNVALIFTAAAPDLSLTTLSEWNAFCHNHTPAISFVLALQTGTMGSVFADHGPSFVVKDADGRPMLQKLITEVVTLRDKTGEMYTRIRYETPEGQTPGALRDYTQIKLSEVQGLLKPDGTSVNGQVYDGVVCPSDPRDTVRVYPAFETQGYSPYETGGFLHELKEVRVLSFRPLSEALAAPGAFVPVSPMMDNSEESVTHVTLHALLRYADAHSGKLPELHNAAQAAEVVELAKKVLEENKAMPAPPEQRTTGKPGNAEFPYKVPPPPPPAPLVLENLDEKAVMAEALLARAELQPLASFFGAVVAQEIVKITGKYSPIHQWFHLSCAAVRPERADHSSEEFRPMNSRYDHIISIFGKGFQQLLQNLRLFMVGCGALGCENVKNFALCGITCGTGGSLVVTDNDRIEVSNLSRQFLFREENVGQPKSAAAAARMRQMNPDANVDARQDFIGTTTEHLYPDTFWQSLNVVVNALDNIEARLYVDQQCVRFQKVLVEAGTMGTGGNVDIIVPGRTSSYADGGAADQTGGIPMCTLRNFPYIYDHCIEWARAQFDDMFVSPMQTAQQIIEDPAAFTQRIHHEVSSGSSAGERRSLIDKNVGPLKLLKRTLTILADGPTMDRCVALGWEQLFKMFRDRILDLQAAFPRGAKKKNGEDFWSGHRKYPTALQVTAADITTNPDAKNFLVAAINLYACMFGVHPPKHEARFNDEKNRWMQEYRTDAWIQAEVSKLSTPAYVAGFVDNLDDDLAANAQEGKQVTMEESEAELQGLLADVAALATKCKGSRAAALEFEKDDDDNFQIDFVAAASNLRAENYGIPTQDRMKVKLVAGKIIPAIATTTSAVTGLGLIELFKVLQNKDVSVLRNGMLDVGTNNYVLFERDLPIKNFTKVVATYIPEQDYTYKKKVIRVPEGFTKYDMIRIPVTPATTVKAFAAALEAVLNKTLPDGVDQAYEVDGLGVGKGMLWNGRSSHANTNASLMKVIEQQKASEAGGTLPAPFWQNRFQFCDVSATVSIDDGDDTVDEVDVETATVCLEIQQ
Assay: Leishmania donovani Ubiquitin Activating Enzyme (LdE1)
Assay type: functional
Parameters: scale not given: direction of the effect not stated beside the values
Settings: 30 µM
Potency and affinity values are given separately.
readoutLabel: Percent Effect (%)
Please state the figure in %; there is no need to write the unit.

| compound | Percent Effect, % |
| --- | --- |
| CN(Cc1ccc(Cl)s1)C(=O)c1cccc(OCC(N)=O)c1 | 5.41 |
| Cc1cnn(CC2CN(Cc3nnc(-c4occc4C)o3)CCO2)c1 (configuration not stated) | 10.8 |
| O=C(NCC(=O)N1CCCCC1)c1ccc(Cl)cc1I | 5.41 |
| Cc1nnc2n1CCN(C(=O)COCCOc1ccccc1)C2 | -21.5 |
| CC(CCN1CCn2nc(CNC(=O)N(C)C)cc2C1)c1ccccc1 (configuration not stated) | 5.41 |

Measured Percent Effect of CC(C)CN(C)c1ccc(C(=O)N2CCCC2c2cnn(C)c2)cn1 (configuration not stated) : 5.26

Percent Effect for `CCn1c(CN2CCC(O)(C(=O)OC)CC2)nc2c(F)cccc21` is -44.7

// Percent Effect value for CN1CC(=O)N(c2cccc(F)c2)CC12CCN(Cc1cccnc1)C2 (configuration not stated) : 7.79

Input `CN(C)c1ccc(CNC(=O)c2ccc(Cl)cc2F)cc1` . Output Percent Effect: 21.1

Looking up NCC(c1ccccc1)N1CCc2sccc2C1 (configuration not stated) , I found its Percent Effect recorded as 7.89

The value of Percent Effect measured for the compound CC(C)CCN1CCNC(=O)C1CC(=O)N1CCc2sccc2C1 (configuration not stated) turned out to be 0

Kindly note the recorded Percent Effect for `CC(=O)N1CCC2(CC1)CC[C@@]1(C(=O)N(C)C)CN(S(C)(=O)=O)C[C@@H]21` , which is 18.9

* * *

Target: Proteasome subunit beta (Trypanosoma cruzi)
Sequence (whole entry): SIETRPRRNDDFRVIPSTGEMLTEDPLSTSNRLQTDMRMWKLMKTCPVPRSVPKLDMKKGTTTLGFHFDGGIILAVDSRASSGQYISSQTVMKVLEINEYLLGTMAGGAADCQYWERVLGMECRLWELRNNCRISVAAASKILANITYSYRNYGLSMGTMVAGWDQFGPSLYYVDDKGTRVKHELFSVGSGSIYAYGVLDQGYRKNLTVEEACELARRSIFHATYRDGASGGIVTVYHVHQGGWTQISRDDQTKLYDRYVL
Test: Trypanosoma cruzi proteasome chymotrypsin-like activity (TcProtChymo) assay. Also: in the data most compounds retested in dose-response had high values.
Assay type: functional
Design: scale not given: direction of the effect not stated beside the values
Details: 9.37 µM
readoutLabel: Percent Effect
Don't forget the unit after the number, please.

| compound | targetOfAssay | Percent Effect |
| --- | --- | --- |
| CN(Cc1nccn1CC(F)(F)F)C(=O)c1ccc(F)c(F)c1 | Proteasome subunit beta (Trypanosoma cruzi) | 10.4% |
| Cc1cc(-c2cnn(CCNC(=O)C3CCCO3)c2C2CC2)on1 (stereo unspecified) | Proteasome subunit beta (Trypanosoma cruzi) | 3.59% |
| Cn1ccnc1COc1ccc(CO)cc1 | Proteasome subunit beta (Trypanosoma cruzi) | 6.59% |

Fill in: Proteasome subunit beta (Trypanosoma cruzi) Percent Effect for `Cc1nc[nH]c1-c1nc2cc(S(=O)(=O)N3CCCC3)ccc2n1C` = 8.16%

# Percent Effect measured on Proteasome subunit beta (Trypanosoma cruzi) for item COCCc1noc(CN(C)C2CCCN(c3ccc(C)nn3)C2)n1 (stereo unspecified) = 11.9%

The measured Percent Effect that O=C(CCc1ccsc1)NCC1CCN(c2ccccc2)C1 (stereo unspecified) showed for Proteasome subunit beta (Trypanosoma cruzi) is 18.4%

* * *

biological target: Tyrosyl-tRNA synthetase, putative (Trypanosoma cruzi (strain CL Brener)) (UniProt Q4DSP6); experiment: Trypanosoma cruzi tyrosyl tRNA synthetase (TcYRS) SOP; type: functional; set-up: scale not given: direction of the effect not stated beside the values; details: 30 µM
Sequence (Q4DSP6 as listed by the source): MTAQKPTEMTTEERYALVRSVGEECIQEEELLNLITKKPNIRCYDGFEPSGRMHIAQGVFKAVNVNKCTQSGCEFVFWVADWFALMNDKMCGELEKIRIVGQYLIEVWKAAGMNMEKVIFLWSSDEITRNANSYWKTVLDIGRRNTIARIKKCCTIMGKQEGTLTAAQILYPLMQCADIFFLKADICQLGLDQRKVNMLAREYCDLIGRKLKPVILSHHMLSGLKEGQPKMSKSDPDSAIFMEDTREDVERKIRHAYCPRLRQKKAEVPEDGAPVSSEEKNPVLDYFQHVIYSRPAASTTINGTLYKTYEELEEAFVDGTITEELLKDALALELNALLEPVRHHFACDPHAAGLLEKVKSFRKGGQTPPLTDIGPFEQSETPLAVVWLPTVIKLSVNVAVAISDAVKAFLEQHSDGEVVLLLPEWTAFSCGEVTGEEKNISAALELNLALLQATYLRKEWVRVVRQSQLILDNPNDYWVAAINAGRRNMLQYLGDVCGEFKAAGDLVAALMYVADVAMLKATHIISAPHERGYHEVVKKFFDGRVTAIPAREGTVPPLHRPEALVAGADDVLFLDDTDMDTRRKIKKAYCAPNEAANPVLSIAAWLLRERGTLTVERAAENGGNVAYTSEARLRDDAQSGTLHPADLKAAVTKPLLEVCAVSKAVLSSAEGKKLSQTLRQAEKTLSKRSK
readoutLabel: Percent Effect (%)
Give just the numeric value; % need not be written.

Recorded Percent Effect, per entry:
| compound | unitString | Percent Effect |
| --- | --- | --- |
| Cc1nc(C(C)(C)NC(=O)Nc2ccccc2)no1 | % | 0 |
| CCCNC(=O)c1sc(Nc2ccc(Cl)cn2)nc1C | % | 7.69 |
| Cc1nccn1CCCC(=O)N1CCC(Nc2cccnn2)CC1 | % | 16.1 |
| Cc1cc(C(=O)N2CCCC(n3cncn3)C2)c(C)n1C1CC1 (configuration not stated) | % | 2.53 |
| O=C(Cn1cccnc1=O)NC(Cc1ccsc1)c1ccccn1 (configuration not stated) | % | 9.09 |

Continue with the compound presented below.
Consider `CC(C)CNC(=O)CN1C=Nc2ccccc2S1(=O)=O` . Its measured Percent Effect is 6.17
